# procedureDetails: anti-His antibody binders, primary screen, artefact control for SMM control protein annotation, biochemical, small-molecule microarray, 635 nm fluorescence (AID 1128);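 note: score merges feature fluorescence with signal-to-noise for each printed compound spot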
# conditionsUsed: anti-His Alexa647 antibody binding, higher = more signal
composite z-score of 0.9 or higher: rule met. Under 0.9: rule not met.

(Q) Say whether "C[C@@H]1CC[C@H]2C(=O)O[C@@H](CN=[N+]=[N-])CN2[C@H]1c1ccc(Br)cc1" shows composite z-score of 0.9 or more.
(A) rule met

(Q) Say whether "C=CC[C@@H]1C=C[C@H](ON=C(C)CCN2CCCCc3nc(C)c(C)cc32)[C@@H](CO)O1" shows composite z-score of 0.9 or more.
(A) rule not met

(Q) Say whether COC(=O)CC=C[C@@H](C)[C@@H](C=NOC(C)CN1CCCc2nc(C)c(C)cc21)NS(=O)(=O)c1ccc(C)cc1 (stereo partly specified) shows composite z-score of 0.9 or more.
(A) rule met

(Q) Say whether "CC(C)=NO[C@@H](C)c1cn([C@H](CO)Cc2ccccc2)nn1" shows composite z-score of 0.9 or more.
(A) rule not met

(Q) Say whether "CC#CCOCCC=C1c2ccccc2[C@@H](OC)[C@@H]1C" shows composite z-score of 0.9 or more.
(A) rule met

(Q) Say whether CCOC(=O)[C@H](CC(C)C)NC(=O)CCC1CC(OC(=O)NCCc2ccc(F)cc2)CC2(CCCC(COC(=O)NCCCN3CCCC3=O)O2)O1 (stereo partly specified) shows composite z-score of 0.9 or more.
(A) rule met

(Q) Say whether COC(=O)[C@H](C)NC(=O)CCC1CC(OC(=O)NCc2ccc3c(c2)OCO3)CC2(CCCC(COC(=O)NCc3ccccc3)O2)O1 (stereo partly specified) shows composite z-score of 0.9 or more.
(A) rule not met

(Q) Say whether "Cc1ccc(S(=O)(=O)N[C@@H]2COC(=O)CC=C[C@@H](C)[C@H](NS(=O)(=O)c3ccc(C)cc3)COC(=O)[C@H](C)NC(=O)CC=C[C@H]2C)cc1" shows composite z-score of 0.9 or more.
(A) rule not met

(Q) Say whether CCOC(=O)[C@H](CC(C)C)NC(=O)CCC1CC(OC(=O)NCc2ccc3c(c2)OCO3)CC2(CCCC(COC(=O)NCCOC)O2)O1 (stereo partly specified) shows composite z-score of 0.9 or more.
(A) rule not met

(Q) Say whether "C[C@H]1CC[C@H]2C(=O)N[C@H](Cc3ccccc3)C(=O)N2[C@@H]1c1ccccc1" shows composite z-score of 0.9 or more.
(A) rule not met

(Q) Say whether "C[C@H]1CC[C@H]2C(=O)O[C@H](CO)CN2[C@@H]1c1ccc(Br)cc1" shows composite z-score of 0.9 or more.
(A) rule not met

(Q) Say whether COC(=O)[C@H](C)NC(=O)CCC1CC(OC(=O)NCc2cccc3ccccc23)CC2(CCCC(COC(=O)NCc3cccc(C(F)(F)F)c3)O2)O1 (stereo partly specified) shows composite z-score of 0.9 or more.
(A) rule met

(Q) Say whether CCOC(=O)[C@H](Cc1ccccc1)NC(=O)CCC1CC(OC(=O)NCc2ccc3c(c2)OCO3)CC2(CCCC(COC(=O)NCCOC)O2)O1 (stereo partly specified) shows composite z-score of 0.9 or more.
(A) rule not met

(Q) Say whether "CCOC(=O)CCN1C(=O)[C@H]2[C@H]3[C@H](O)[C@H](O)CC(=NOCC(C)C)[C@@H]3CC[C@H]2C1=O" shows composite z-score of 0.9 or more.
(A) rule not met

(Q) Say whether CCOC(=O)[C@H](CC(C)C)NC(=O)CCC1CC(OC(=O)NCc2ccc3c(c2)OCO3)CC2(CCCC(COC(=O)NCc3ccccc3)O2)O1 (stereo partly specified) shows composite z-score of 0.9 or more.
(A) rule not met

(Q) Say whether O=C1CCCC=C1C(O)c1ccc([N+](=O)[O-])cc1 (stereo unspecified) shows composite z-score of 0.9 or more.
(A) rule not met

(Q) Say whether "CCCNC(=O)OC[C@H]1O[C@H](CCON=C2c3cc(OC)ccc3O[C@H](c3cccc(OC)c3)[C@H]2O)C=C[C@@H]1Oc1ccc(OC)cc1" shows composite z-score of 0.9 or more.
(A) rule met

(Q) Say whether "CC=CC1=C(CO)[C@H](O)[C@H]2O[C@H]2[C@@H]1O" shows composite z-score of 0.9 or more.
(A) rule not met

(Q) Say whether "CC(C)C(=O)N[C@H]1CCCN1C(=O)C=Cc1ccccc1" shows composite z-score of 0.9 or more.
(A) rule not met

(Q) Say whether "COC(=O)CC=C[C@@H](C)[C@@H](C=NOC[C@@H](O)[C@H]1O[C@@H]2OC(C)(C)O[C@@H]2[C@H]1O)OC" shows composite z-score of 0.9 or more.
(A) rule met

---

# System: Plasmodium falciparum Sir2 (PF13_0152, Sir2A)
# procedureDetails: pfSir2 binders on small-molecule microarrays, primary screen, biochemical, small-molecule microarray, 635 nm fluorescence (AID 1098);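 note: score merges spot fluorescence intensity with its signal-to-noise ratio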
# conditionsUsed: small-molecule microarray binding, fluorescence 635 nm; higher = more signal
composite z-score of 0.7 or higher: T. Under 0.7: F.

(Q) Say whether CCOC(=O)[C@H](Cc1ccccc1)NC(=O)CCC1CC(OC(=O)NCc2cccc3ccccc23)CC2(CCCC(COC(=O)NCc3ccc4c(c3)OCO4)O2)O1 (some centres undefined) shows composite z-score of 0.7 or more.
(A) F

(Q) Say whether COC(=O)[C@H](C)NC(=O)CCC1CC(OC(=O)NCCc2ccc(F)cc2)CC2(CCCC(COC(=O)NCC3CCCCC3)O2)O1 (some centres undefined) shows composite z-score of 0.7 or more.
(A) F

(Q) Say whether "CC(CCN1CCCc2nc(C)c(C)cc21)=NOC[C@@H](O)COCc1ccco1" shows composite z-score of 0.7 or more.
(A) T

(Q) Say whether COC(=O)CC=C[C@@H](C)[C@@H](C=NOC(C)CN1CCCc2nc(C)c(C)cc21)NS(=O)(=O)c1ccc(C)cc1 (some centres undefined) shows composite z-score of 0.7 or more.
(A) F

(Q) Say whether CCOC(=O)[C@H](Cc1ccccc1)NC(=O)CCC1CC(OC(=O)NCc2ccc3c(c2)OCO3)CC2(CCCC(COC(=O)NCCOC)O2)O1 (some centres undefined) shows composite z-score of 0.7 or more.
(A) T

(Q) Say whether "COc1ccc2c(c1)O[C@@H](c1cccc(C(F)(F)F)c1)[C@H](O)C2=O" shows composite z-score of 0.7 or more.
(A) F

(Q) Say whether COc1ccc(OC[C@@H]2CC3[C@@H](c4ccc(Br)cc4)[C@H](C)CC[C@H]3C(=O)O2)cc1 (some centres undefined) shows composite z-score of 0.7 or more.
(A) F

(Q) Say whether "CC(CCN1CCCc2nc(C)c(C)cc21)=NO[C@H](C)c1cn([C@H](CO)Cc2ccccc2)nn1" shows composite z-score of 0.7 or more.
(A) T

---

# procedureDetails: E. coli acrAB mutant growth effects, primary screen, E. coli filamentation inducers, strain DRC39, OD650, 48 h (AID 1179);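 note: screen aims at cell division blockers that make cells filament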
# conditionsUsed: E. coli DRC39 delta-acrAB growth, higher = more signal, called active from +8 up or from −8 down
The source made the active and inactive calls.
Record form. Attribute: z-score. Fill in for each entry.

(Q) Please report z-score for the following molecule: "O=C1[C@H]2[C@H]3[C@H](O)[C@H](O)CC(=NO[C@@H]4O[C@H](CO)[C@@H](O)[C@H](O)[C@H]4O)[C@@H]3CC[C@H]2C(=O)N1C[C@@H]1CCCO1"
(A) 0.172 (inactive)

(Q) Please report z-score for the following molecule: "CC(C)CON=C1[C@H]2CCn3c(=O)n(C)c(=O)n3[C@H]2[C@H](O)[C@@H]2O[C@H]12"
(A) -0.0718 (inactive)

(Q) Please report z-score for the following molecule: "COC(=O)[C@H](CCSC)NC(=O)CC=C[C@@H](C)CO"
(A) -0.576 (inactive)

(Q) Please report z-score for the following molecule: "CCN1C(=O)[C@H]2[C@H]3[C@H](O)[C@H](O)CC(=NO[C@@H](C)c4cc(-c5c(C)cc(C)cc5C)no4)[C@@H]3CC[C@H]2C1=O"
(A) 0.596 (inactive)

(Q) Please report z-score for the following molecule: "CCOC(=O)NN=C1C[C@@H](O)[C@@H](O)[C@@H]2[C@@H]3C(=O)N(c4ccc(F)cc4F)C(=O)[C@@H]3CC[C@H]12"
(A) 0.498 (inactive)

(Q) Please report z-score for the following molecule: "CC1(C)O[C@H]2O[C@H]([C@H](O)CON=C3[C@H]4CCn5c(=O)n(-c6ccccc6)c(=O)n5[C@H]4[C@H](O)[C@@H]4O[C@H]34)[C@H](O)[C@H]2O1"
(A) -0.516 (inactive)

(Q) Please report z-score for the following molecule: "CCOC(=O)NN=C1C[C@@H](O)[C@@H](O)[C@@H]2[C@@H]3C(=O)N(C[C@@H]4CCCO4)C(=O)[C@@H]3CC[C@H]12"
(A) 0.626 (inactive)

(Q) Please report z-score for the following molecule: "CCN1C(=O)[C@H]2[C@H]3[C@H](O)[C@H](O)CC(=NO[C@@H]4O[C@H](COC(C)=O)[C@@H](OC(C)=O)[C@H](OC(C)=O)[C@H]4OC(C)=O)[C@@H]3CC[C@H]2C1=O"
(A) 1.44 (inactive)

(Q) Please report z-score for the following molecule: "O=C1C[C@H](c2ccccc2)[C@H](c2ccc(Br)cc2)O1"
(A) -1.67 (inactive)

(Q) Please report z-score for the following molecule: "O=C1[C@H]2[C@H]3[C@H](O)[C@H](O)CC(=NOCc4ccccc4)[C@H]3CC[C@H]2C(=O)N1C1CCCCC1"
(A) -0.414 (inactive)

(Q) Please report z-score for the following molecule: "COc1ccc(O[C@H]2C=C[C@@H](c3ccccc3)O[C@@H]2COC(=O)CCC(C)=NOC[C@@H](O)COCc2ccco2)cc1"
(A) -0.902 (inactive)

(Q) Please report z-score for the following molecule: "COc1ccc(O[C@H]2C=C[C@@H](c3ccccc3)O[C@@H]2CON=C(C)CCN2CCCc3nc(C)c(C)cc32)cc1"
(A) -0.112 (inactive)

(Q) Please report z-score for the following molecule: "CC(CCN1CCCc2nc(C)c(C)cc21)=NOC[C@@H](O)COCc1ccco1"
(A) 0.948 (inactive)

(Q) Please report z-score for the following molecule: COC(=O)[C@H](C)NC(=O)CCC1CC(OC(=O)NCc2cccc3ccccc23)CC2(CCCC(COC(=O)NCCOc3ccccc3)O2)O1 (stereo not given in full)
(A) -0.693 (inactive)

(Q) Please report z-score for the following molecule: "COC(=O)CC=C[C@@H](C)[C@@H](C=NOC[C@@H](O)COCc1ccco1)OC"
(A) 0.803 (inactive)

Origin of the recorded values: PubChem BioAssay
